- Method Notes: clinical;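 further: Open-label dose-escalation clinical trial, plasma drug levels measured by validated LC-MS, sampling during the first 4-week treatment cycle only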
- Study Conditions: human, in vivo, t1/2, All cohorts combined, Median
Metric Name: half-life (h)
The answer is to be given in h; state only the numeric part.

[in] Please look at this compound and report its half-life: `C=CCNC1=C2C[C@@H](C)C[C@H](OC)[C@H](O)[C@@H](C)/C=C(\C)[C@H](OC(N)=O)[C@@H](OC)/C=C\C=C(/C)C(=O)NC(=CC1=O)C2=O`
[out] 3.42

====

- Method Notes: clinical
- Study Conditions: human, in vivo, Clearance, All cohorts combined (225-450 mg/m^2), mean
Metric Name: Clearance
Could you give the number and then its unit, please?

[in] Please look at this compound and report its Clearance: `C=CCNC1=C2C[C@@H](C)C[C@H](OC)[C@H](O)[C@@H](C)/C=C(\C)[C@H](OC(N)=O)[C@@H](OC)/C=C\C=C(/C)C(=O)NC(=CC1=O)C2=O`
[out] 536 mL/min
